Reference for the values: ChEMBL document CHEMBL1146197

Tested on: Escherichia coli
experimental-protocol: Activity of Escherichia coli BL21(DE3) beta-lactamase TEM1
quantity-measured: Km (µM)
Reply with just the number (in µM).

Example entries and their recorded answers appear below.
[[record]]
molecular_string = "CC1(C)S[C@@H]2[C@H](NC(=O)[C@H](N)c3ccc(O)cc3)C(=O)N2[C@H]1C(=O)O"
quantity_measured = "Km"
assay_result = 15

[[record]]
molecular_string = "CC(=O)OCC1=C(C(=O)O)N2C(=O)[C@@H](NC(=O)Cc3cccs3)[C@H]2SC1"
quantity_measured = "Km"
assay_result = 242

[[record]]
molecular_string = "CC1(C)S[C@@H]2[C@H](NC(=O)[C@H](C(=O)O)c3ccsc3)C(=O)N2[C@H]1C(=O)O"
quantity_measured = "Km"
assay_result = 36


Then there is this compound:
### Prompt Which Km is reported for this compound? "CCN1CCN(C(=O)N[C@@H](C(=O)N[C@@H]2C(=O)N3[C@@H]2SC(C)(C)[C@@H]3C(=O)O)c2ccccc2)C(=O)C1=O"
### Response 55
